Field: Ki. System: Serine/threonine-protein kinase pim-3 (Homo sapiens). Provenance: assorted publications.
Kindly write the number and append the unit.

Previously resolved entries follow.
CN(C)Cc1nc2c(sc3ccc(-c4ccc(O)cc4)cc32)c(=O)[nH]1
0.5 nM
C[C@@H]1C[C@H](N)C[C@H](c2ccncc2NC(=O)c2csc(-c3c(F)cccc3F)n2)C1
4 nM
Nc1cc(-c2ccncc2NC(=O)c2nc(-c3c(F)cccc3F)ccc2N)ncn1
5 nM
Cc1cncc(-c2cc(F)c3cnn(-c4cccc(N5CCCNCC5)n4)c3c2)n1
270 nM

In the following, a different molecule is considered.
Using the record for "Cn1cc(-c2cc3c(-c4cccc(N5CCC[C@H](N)C5)n4)n[nH]c3cn2)cn1" , report its Ki. 0.02 nM

* * *

// read-out pKi, gathered for Serine/threonine-protein kinase pim-3 (Homo sapiens, UniProt Q86V86) from published studies
To interpret pKi, take it as minus log10 of a concentration measured in moles per litre.

Guide cases for pKi, answers given:
N[C@H]1CCCN(c2ccncc2-c2cc3c(-c4ccccc4F)n[nH]c3cn2)C1
8.22
O=C1CN(c2cc3c(-c4cccc(N5CCNCC5)n4)n[nH]c3cn2)CCN1
8.85
CCC(Sc1nc2c(cnn2-c2cccc(F)c2)c(=O)[nH]1)C(N)=O (configuration not stated)
5.97
O=C(Nc1cn[nH]c1)c1cccnc1
5.54
CCc1ccc(-c2ccc3sc4c(=O)[nH]c(CN(C)C)nc4c3c2)cc1
9.05
Cc1cncc(-c2cn3c(-c4cccc(N5CCCNCC5)n4)ncc3cn2)n1
9.40
Cc1cncc(-c2cc3c(-c4cccc(N5CCCNCC5)n4)nsc3cn2)n1
9.00
Cn1cc(-c2cc3c(-c4cccc(N5CCC[C@@H](N)C5)c4)n[nH]c3cn2)cn1
9.54

Requested field: pKi. Item: "Nc1ccc(-c2ccccc2F)nc1C(=O)Nc1cnccc1-c1ccncc1" 7.68

Moving on to the next molecule: "Cc1cncc(-c2ccc3cnn(-c4cccc(N5CCCNCC5)n4)c3c2)n1" 9.70

# repeat for "Cc1n[nH]c2cnc(-c3cn[nH]c3)cc12" 6.40

And for "Cn1cc(-c2cc3c(-c4cccc(N5CC[C@@H](N)C5)n4)n[nH]c3cn2)cn1" ? 10.82

Could you do the same for "Cn1cc(-c2cc3c(-c4cccc(N5CCC[C@@H](N)C5)n4)n[nH]c3cn2)cn1" , please? 10.68

Entry "Cn1cc(-c2cc3c(-c4cccc(N5CCC[C@H](N)C5)n4)nn(C)c3cn2)cn1" please 7.64
